The reported numbers originate from ChEMBL document CHEMBL3352248.

# study.target: Casein kinase II (Homo sapiens, UniProt P19784+P67870+P68400)
# Sequence (P67870 whole entry): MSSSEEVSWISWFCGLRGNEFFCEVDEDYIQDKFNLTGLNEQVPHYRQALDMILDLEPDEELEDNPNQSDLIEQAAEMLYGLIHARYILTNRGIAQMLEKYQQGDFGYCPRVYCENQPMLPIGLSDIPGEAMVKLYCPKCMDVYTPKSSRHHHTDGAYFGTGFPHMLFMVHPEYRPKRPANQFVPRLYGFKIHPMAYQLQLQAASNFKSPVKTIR
# Sequence (P68400 whole entry): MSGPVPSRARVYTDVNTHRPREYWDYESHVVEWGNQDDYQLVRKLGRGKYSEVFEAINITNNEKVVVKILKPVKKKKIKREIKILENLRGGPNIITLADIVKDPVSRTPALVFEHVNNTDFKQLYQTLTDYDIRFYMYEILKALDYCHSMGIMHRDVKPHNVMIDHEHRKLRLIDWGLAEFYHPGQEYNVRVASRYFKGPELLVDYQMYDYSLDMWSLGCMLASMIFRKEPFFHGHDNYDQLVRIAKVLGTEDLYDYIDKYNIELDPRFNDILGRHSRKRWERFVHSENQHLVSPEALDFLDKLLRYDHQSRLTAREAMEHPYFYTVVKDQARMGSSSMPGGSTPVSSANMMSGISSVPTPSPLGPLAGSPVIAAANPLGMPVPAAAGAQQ
# Sequence (P19784 whole entry): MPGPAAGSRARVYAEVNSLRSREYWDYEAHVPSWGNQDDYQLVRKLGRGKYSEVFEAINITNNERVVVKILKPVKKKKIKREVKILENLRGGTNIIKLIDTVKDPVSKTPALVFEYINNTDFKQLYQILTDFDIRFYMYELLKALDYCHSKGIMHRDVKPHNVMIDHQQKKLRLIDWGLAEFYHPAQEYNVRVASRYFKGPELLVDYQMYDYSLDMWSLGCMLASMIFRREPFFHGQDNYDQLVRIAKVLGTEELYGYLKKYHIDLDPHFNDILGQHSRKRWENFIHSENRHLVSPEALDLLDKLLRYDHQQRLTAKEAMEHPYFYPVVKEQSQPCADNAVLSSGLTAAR
# test.protocol: Inhibition of human recombinant CK2a1/CK2b holoenzyme expressed in Escherichia coli BL21(DE3) pre-incubated for 10 mins before substrate addition by capillary electrophoresis based assay
pIC50: −log10 of the molar value.
experimental.readout: pIC50

Answered examples (2):
O=C1CCCc2c1c1c(n2CCCc2ccccc2)-c2ccccc2C1=O = 5.22
COc1ccccc1CCn1c2c(c3c1-c1ccccc1C3=O)C(=O)CCC2 = 5.85

[1] O=C1CCCc2c1c1c(n2CCc2ccccc2)-c2ccccc2C1=O
[2] O=C1CC(c2ccccc2)Cc2c1c1c(n2Cc2ccccc2)-c2ccccc2C1=O (centres undefined)
// query Hey, which is lower on measured pIC50, 1 or 2 ? Output the label that corresponds to your choice.
// result 2
(2: 4.26, 1: 5.15)

###

The entries below come with measured inhibition at 0.5 h, 10 µM values attached.
# study.target: ABCG2 (Homo sapiens)
# Sequence (Q9UNQ0 whole entry): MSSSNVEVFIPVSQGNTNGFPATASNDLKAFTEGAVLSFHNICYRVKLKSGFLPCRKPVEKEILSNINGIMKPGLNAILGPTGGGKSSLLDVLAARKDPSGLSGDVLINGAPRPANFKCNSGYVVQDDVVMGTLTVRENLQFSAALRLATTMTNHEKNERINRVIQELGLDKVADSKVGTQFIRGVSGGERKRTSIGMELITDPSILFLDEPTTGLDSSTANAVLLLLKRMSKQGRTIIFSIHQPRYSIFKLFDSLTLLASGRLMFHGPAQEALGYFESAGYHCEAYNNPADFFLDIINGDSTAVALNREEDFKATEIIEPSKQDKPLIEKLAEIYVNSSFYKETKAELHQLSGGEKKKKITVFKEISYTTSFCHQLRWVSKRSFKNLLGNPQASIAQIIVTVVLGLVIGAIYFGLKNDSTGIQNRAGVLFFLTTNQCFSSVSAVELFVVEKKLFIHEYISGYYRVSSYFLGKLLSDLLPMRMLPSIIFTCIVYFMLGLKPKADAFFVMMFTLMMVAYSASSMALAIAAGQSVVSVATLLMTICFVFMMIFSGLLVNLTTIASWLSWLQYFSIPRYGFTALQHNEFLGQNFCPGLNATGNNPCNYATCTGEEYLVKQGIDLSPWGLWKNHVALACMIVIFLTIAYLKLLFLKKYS
# test.protocol: Inhibition of ABCG2 (unknown origin) expressed in HEK293 cells assessed as reduction in mitoxantrone efflux at 10 uM after 30 mins by FACS method
# Type: cell-based
# conditions: HEK293 cells expressing ABCG2, probe mitoxantrone
Just the number in %, nothing appended.

Answered examples (5):
CC1CC(=O)c2c3c(n(CCc4ccccc4)c2C1)-c1ccccc1C3=O (centres undefined) = 100
O=C1CC(c2ccccc2)Cc2c1c1c(n2Cc2ccccc2)-c2ccccc2C1=O (centres undefined) = 68
O=C1CCCc2c1c1c(n2Cc2ccccc2)-c2ccccc2C1=O = 18
CC1CC(=O)c2c3c(n(C(C)C)c2C1)-c1ccccc1C3=O (centres undefined) = 65
O=C1CC(c2ccccc2)Cc2c1c1c(n2CCc2ccccc2)-c2ccccc2C1=O (centres undefined) = 83

// query Return inhibition at 0.5 h, 10 µM measured with ABCG2 (Homo sapiens) given this molecule: COc1ccc2[nH]cc(CCNC(=O)c3cc(=O)c4c(OCc5ccc(Br)cc5)cccc4o3)c2c1
// result 98

###

# study.target: UniProtKB Q9UNQ0
# test.protocol: Inhibition of ABCG2 (unknown origin) expressed in HEK293 cells assessed as reduction in mitoxantrone efflux at 10 uM after 30 mins by FACS method
# Type: cell-based
# conditions: HEK293 cells expressing ABCG2, probe mitoxantrone
experimental.readout: inhibition at 0.5 h, 10 µM (%)
Just the number in %, nothing appended.

Answered examples (7):
COc1cccc(CCn2c3c(c4c2-c2ccccc2C4=O)C(=O)CCC3)c1 = 78
CC1CCc2c(c3c(n2C(C)C)-c2ccccc2C3=O)C1=O (stereo not drawn) = 40
CC(C)=CCOc1cccc2c1-c1c(c3c(n1C(C)C)CCCC3=O)C2=O = 60
COc1ccc(CCn2c3c(c4c2-c2ccccc2C4=O)C(=O)CCC3)cc1 = 131
CC(C)n1c2c(c3c1-c1ccccc1C3=O)C(=O)CCC2 = 15
CC(C)=CCOc1cccc2c1C(=O)c1c3c(n(C(C)C)c1-2)CCCC3=O = 74
O=C1CCCc2c1c1c(n2CCCc2ccccc2)-c2ccccc2C1=O = 83

Kindly review the next compound as well.
// query Return inhibition at 0.5 h, 10 µM measured with UniProtKB Q9UNQ0 given this compound: COc1ccccc1CCn1c2c(c3c1-c1ccccc1C3=O)C(=O)CCC2
// result 106
